Where these numbers come from: the supplement of paper PMC4166925

Test system: SpTbr T-box DNA-binding domain (GST fusion);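 note: protein at 200 nM in PBS on universal double-stranded arrays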
Sequence: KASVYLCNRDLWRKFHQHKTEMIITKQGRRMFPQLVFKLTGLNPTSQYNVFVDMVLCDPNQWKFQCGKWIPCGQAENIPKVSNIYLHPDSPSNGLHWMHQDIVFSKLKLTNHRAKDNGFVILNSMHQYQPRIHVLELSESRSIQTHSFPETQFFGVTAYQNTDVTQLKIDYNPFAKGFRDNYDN
Assay: PBM E-score of 8-mer (E-score (dimensionless, -0.5 to 0.5)); Tbr is Tbrain of the sea star Patiria miniata (Pm) or the sea urchin Strongylocentrotus purpuratus (Sp); higher = stronger binding preference
Details: the construct has about 5 more residues each side
In all, about 33,000 sequences were measured (“E-score (dimensionless, -0.5 to 0.5)”: median about -0.046, highest 2% from about 0.36 on). For the sample, the highest values were picked, then their nearest neighbours and some sequences at random.
measureName: PBM E-score of 8-mer
Write the number on its own, no unit after it.

Answered examples (10):
I'd like to know its PBM E-score of 8-mer. The sequence in question is `CTGGTGTC`
0.312

What about `GAACCTGC` ?
-0.126

Next entry: `AAGAATTC`
-0.22

Okay, and `CGGGGGAC` ?
-0.117

Queued: `ATACCTGG`
0.0363

Proceed to `AGTAGGTG`
0.397

Subsequent entry: `CCCGCCTA`
-0.0474

Then `CATGAGTC` ?
-0.0802

Then `AGTTCCAT` ?
0.00979

Now try `TGTGCAAA` .
0.225

Below: the item to evaluate.
Entry under review: `ACATGGCA` . Reported PBM E-score of 8-mer?
-0.0601
